Hey, just so you know, these numbers are from paper PMC7522082.

- assayTarget: His6-MBP-FMRP P451S (Homo sapiens, UniProt Q06787 1-632, P451S)
- measurementProtocol: fluorescence anisotropy; 75 mM K+, 5 mM Mg2+; FA: 20 mM Tris pH 7.5, 75 mM KCl, 5 mM MgCl2, 1 uM BSA, 1 mM DTT, 100 ng/uL tRNA, ~5 nM RNA, RT 1 h; EMSA: 50 mM Tris pH 7.5, 145 mM KCl, 5 mM MgCl2, 1 uM BSA
readoutType: pKd
Scale explanation: pKd corresponds to minus log10 of a concentration expressed in moles per litre.

Q: Tell me the measured pKd of GGGGGGGGGGGGGGGGGU (structured_RNA) [poly-G17U] , please.
Ans: 8.25
